Tested on: Trypanosoma cruzi
Experiment: Trypanosoma cruzi phosphomannomutase and mannose-1-phosphate guanylyltransferase assay
Assay type: functional
Design: scale not given: direction of the effect not stated beside the values
Conditions: 10 µM
Entries annotated with measured Percent Effect
Your reply should be a number followed by the unit it is expressed in.

Examples from the recorded data:
Cc1nc2cc(O)nn2c(C)c1CCC(=O)N(C)Cc1cscn1    8.08%
COc1ccc(C(=O)N2CCC(Nc3ccc(C)nn3)CC2)c(F)c1    -4.21%
Cc1nnc(C(C)N2CCN(Cc3ccc4c(c3)OCO4)CC2)o1 (stereo unspecified)    -4.62%
CC(=O)Nc1ncc(S(=O)(=O)Nc2ccc(F)cc2)s1    2.36%
Cc1ccccc1-c1cc(C(=O)N2CCn3c(C)nnc3C2)[nH]n1    6.01%

Fill blank: measured Percent Effect of the molecule CNC(=O)N1CC[C@H]2N(C)CC[C@@]2(C(=O)Nc2ccccc2)CC1 is ____. 5.08%

Find the recorded Percent Effect belonging to O=C1CC(N(C(=O)c2ccc3c(c2)CCC3)C2CC2)C(=O)N1 (stereo unspecified) and report it. -8.21%

###

Biological target: Arginase-2, mitochondrial (Homo sapiens) (UniProt P78540)
Sequence (whole entry): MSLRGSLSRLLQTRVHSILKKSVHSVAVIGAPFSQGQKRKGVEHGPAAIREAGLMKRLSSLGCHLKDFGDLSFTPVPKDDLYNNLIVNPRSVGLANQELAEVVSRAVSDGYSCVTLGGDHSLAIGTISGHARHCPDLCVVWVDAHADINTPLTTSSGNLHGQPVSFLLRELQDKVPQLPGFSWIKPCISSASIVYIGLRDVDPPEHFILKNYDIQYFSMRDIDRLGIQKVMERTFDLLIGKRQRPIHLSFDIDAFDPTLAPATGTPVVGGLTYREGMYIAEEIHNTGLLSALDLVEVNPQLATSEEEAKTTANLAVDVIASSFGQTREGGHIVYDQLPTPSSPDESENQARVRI
Assay: in vitro enzyme assay to detect the production of urea directly proportional to the activity of Arginase II; further: in the data most compounds retested in dose-response had high values
Assay type: functional
Set-up: scale not given: direction of the effect not stated beside the values
Details: 33.3 µM
reportedProperty: Percent Effect (%)
Unit % implied. Number only.

Examples from the recorded data:
Cc1cc(C)n(CC2CCCN2C(=O)CCc2cscn2)n1 (stereo unspecified)    1.92
CC(C)NS(=O)(=O)c1cc(C(=O)O)cc(-c2ccccc2CN(C)C)c1    4.22
COCCn1nc(C(=O)N2CCCC2c2cccc(F)c2)ccc1=O (stereo unspecified)    10
CC(=O)Nc1nc(C(=O)NC(C)c2ccc(F)cc2)cs1 (stereo unspecified)    -9.05
O=C(C1=CCCC1)N1CCC[C@]2(C[C@@H](Oc3ncccc3F)CO2)C1    0.399

For Cc1ccccc1CSCCn1nc2ccccn2c1=O , what is its reported Percent Effect? 4

###

Biological target: Chromo domain-containing protein 1 (Saccharomyces cerevisiae (strain ATCC 204508 / S288c) (Baker's yeast))
Assay: ScCHD-1 Enzyme Inhibition Assay; further: in the data most compounds retested in dose-response had high values
Format: functional
Set-up: scale not given: direction of the effect not stated beside the values
Details: 30 µM
reportedProperty: Percent Effect (%)
Use % as the unit, but write only the number.

Example results:
Cc1cn(CC(=O)NC2CCN(C(=O)C3CC3)CC2)c2ccccc12    -3.71
CC(C)(C)OC(=O)N1CCN(C(=O)c2sccc2C2CC2)CC1    -5.68
O=C(c1ccc(-n2cccn2)nc1)N1CCCN(c2cccnn2)CC1    -11.3
Cc1ccc(C(=O)N2CCC3(CCN(C(=O)c4cccnc4)C3)CC2)o1    -2.81
Cc1nc[nH]c1-c1nc2cc(S(=O)(=O)N3CCCC3)ccc2n1C    -5.76

Look at this compound and give its reported Percent Effect. CC(C)c1cnc(CNc2c(F)cccc2-n2cccn2)o1 0.741

Suppose we examine the compound O=C(c1ccncc1)N1CCC(O)(Cn2ccc3ccncc32)CC1 ; what Percent Effect value has been reported? -10.5

Any idea what Percent Effect was measured for CCS(=O)(=O)c1ccc(N2CCC(NC(=O)c3cnn(C)c3)CC2)cc1 ? -5.47
